- ASSAY_PROCEDURE: in vivo
- CONDITION_SUMMARY: po, 200 mg/kg/day
ATTRIBUTE_MEASURED: mortality (%)
Give the value, in units of %, as a plain number.

QUERY: Using the record for `Cc1[nH]c(C=C2C(=O)Nc3ccccc32)c(C)c1CCC(=O)O` , report its mortality.
RESULT: 10

----------
- ASSAY_PROCEDURE: in vivo
- CONDITION_SUMMARY: ip, 100 mg/kg/day
ATTRIBUTE_MEASURED: mortality (%)
Numeric only. Scale: %

QUERY: Find the recorded mortality belonging to Cc1[nH]c(C=C2C(=O)Nc3ccccc32)c(C)c1CCC(=O)O [Example 1] and report it.
RESULT: 12.5
